Source: patent US12319655B2

biological target: A-Raf kinase (SEQ. ID No: 1) (Homo sapiens (Human), UniProt P10398, Y301D/Y302D); test: Biochemical Assay for A-Raf (1); conditions: Table J, assay version (1); read-out: ARAF (1) IC50
Sequence (P10398 other isoform, or with tags, fused parts or gaps Y301D (already in the parent)/Y302D (already in the parent)): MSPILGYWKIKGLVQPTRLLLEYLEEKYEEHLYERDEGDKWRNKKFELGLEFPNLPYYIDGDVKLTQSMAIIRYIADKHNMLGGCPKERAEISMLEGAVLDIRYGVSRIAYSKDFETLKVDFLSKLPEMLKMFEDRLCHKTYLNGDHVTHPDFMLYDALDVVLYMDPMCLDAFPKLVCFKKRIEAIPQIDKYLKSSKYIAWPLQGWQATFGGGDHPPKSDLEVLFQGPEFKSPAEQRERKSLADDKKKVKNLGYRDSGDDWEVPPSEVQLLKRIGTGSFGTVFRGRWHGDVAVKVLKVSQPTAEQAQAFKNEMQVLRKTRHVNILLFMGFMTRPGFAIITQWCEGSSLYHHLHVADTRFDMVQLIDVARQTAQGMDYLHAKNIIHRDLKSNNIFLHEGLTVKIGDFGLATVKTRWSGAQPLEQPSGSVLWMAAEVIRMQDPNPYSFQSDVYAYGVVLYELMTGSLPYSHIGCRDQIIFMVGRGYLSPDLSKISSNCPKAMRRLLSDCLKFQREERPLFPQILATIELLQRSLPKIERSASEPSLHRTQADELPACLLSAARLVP
pIC50: −log10 of the molar value.
reported endpoint: pIC50

Example molecules with recorded pIC50:
{"columns": ["molecule", "target of assay", "pIC50"],
 "data": [
  ["Cc1ccc(NC(=O)c2cnnc(C3CC3)c2)cc1-c1ccnc(-c2ccnc(NC(=O)C3CC3)c2)n1", "A-Raf kinase (SEQ. ID No: 1) (Homo sapiens (Human), UniProt P10398, Y301D/Y302D)", "5.00 to 6.00"],
  ["CC(=O)Nc1cc(-c2cc(-c3cc(NC(=O)c4ccnc(C(F)(F)F)c4)c(F)cc3C)cc(OC(C)C)n2)ccn1", "A-Raf kinase (SEQ. ID No: 1) (Homo sapiens (Human), UniProt P10398, Y301D/Y302D)", "5.00 to 6.00"],
  ["CC(=O)Nc1cc(-c2nccc(-c3cc(NC(=O)c4ccnc(C(C)(C)C#N)c4)ccc3C)n2)ccn1", "A-Raf kinase (SEQ. ID No: 1) (Homo sapiens (Human), UniProt P10398, Y301D/Y302D)", "6.00 to 6.30"],
  ["CNC(=O)c1cc(-c2cccc(-c3cc(NC(=O)c4cccc(C)c4)cnc3C)c2)ccn1", "A-Raf kinase (SEQ. ID No: 1) (Homo sapiens (Human), UniProt P10398, Y301D/Y302D)", "5.00 to 6.00"],
  ["Cc1cc(-c2cc(NC(=O)c3ccnc(C(F)(F)F)c3)ccc2C)cc(-c2ccnc3c2CC(=O)N3)n1", "A-Raf kinase (SEQ. ID No: 1) (Homo sapiens (Human), UniProt P10398, Y301D/Y302D)", "5.00 to 6.00"],
  ["CNC(=O)c1cc(-c2cncc(-c3cc(NC(=O)c4cc(C(F)(F)F)ccn4)ccc3C)n2)ccn1", "A-Raf kinase (SEQ. ID No: 1) (Homo sapiens (Human), UniProt P10398, Y301D/Y302D)", "5.00 to 6.00"]
]}

# return recorded pIC50 for input "CC(=O)Nc1cc(-c2cccc(-c3cc(NC(=O)c4ccnc(C(F)(F)F)c4)ccc3C)c2)ccn1" 6.00 to 6.30

# return recorded pIC50 for input "Cc1ccc(NC(=O)c2ccnc(C(F)(F)F)c2)cc1-c1cccc(-c2ccnc(NC(=O)CC#N)c2)c1" 6.30 to 7.00

# return recorded pIC50 for input "CNC(=O)c1cc(-c2nccc(-c3cc(NC(=O)c4ccnc(C(C)(C)C#N)c4)ccc3C)n2)ccn1" 5.00 to 6.00

# return recorded pIC50 for input "COC(=O)Nc1cc(-c2cnnc(-c3cc(NC(=O)c4ccnc(C(C)(C)C#N)c4)c(F)cc3C)c2)ccn1" 5.00 to 6.00

---

tested on: WM3928 cells; test: WM3928 Cell Proliferation Assay (1); type: cell-based
reported endpoint: IC50

{"columns": ["cpd smiles", "result"],
 "data": [
  ["Cc1ncc(NC(=O)c2ccnc(C3CC3)c2)cc1-c1cnc(C)c(-c2ccnc(NC(=O)C3CC3)c2)c1", "500 to 1000 nM"],
  ["CCOc1ncc(-c2cc(NC(=O)c3ccnc(C(F)(F)F)c3)ccc2C)cc1-c1ccnc(NC(=O)C2CC2)c1", "≤ 100 nM"],
  ["Cc1ccc(NC(=O)c2ccnc(C(C)(C)F)c2)cc1-c1cncc(-c2ccnc(NC(=O)C3CC3)c2)c1", "≤ 100 nM"]
]}

# return recorded IC50 for input "Cc1ccc(NC(=O)c2ccnc(C(F)(F)F)c2)cc1-c1cncc(-c2ccnc(NC=O)c2)n1" 100 to 500 nM
